test name: The drug is tested on Bacteroides cellulosilyticus strain: DSM14838 for biotransformation. The drug concentrations were measured before and after a 12-h incubation by liquid-chromatography-coupled mass spectrometry (LC–MS)
study conditions: 2 µM
measured endpoint: Bacterial Biotransformation

CC#C[C@]1(O)CC[C@H]2[C@@H]3CCC4=CC(=O)CCC4=C3[C@@H](c3ccc(N(C)C)cc3)C[C@@]21C [MIFEPRISTONE] :: Compound NOT metabolized
COc1ccccc1N1CCN(CC(O)COc2cccc3ccccc23)CC1 (stereo not given) [NAFTOPIDIL] :: Compound NOT metabolized
CN1C(=O)CC(C)(c2ccccc2)C1=O (stereo not given) [METHSUXIMIDE] :: Compound NOT metabolized
CCN(C)C(=O)Oc1cccc([C@H](C)N(C)C)c1.O=C(O)C(O)C(O)C(=O)O [RIVASTIGMINE TARTRATE] :: Compound NOT metabolized

====

study system: SGNH hydrolase-type esterase domain-containing protein (Phocaeicola dorei, UniProt B6W1J1)
Sequence (B6W1J1 whole entry): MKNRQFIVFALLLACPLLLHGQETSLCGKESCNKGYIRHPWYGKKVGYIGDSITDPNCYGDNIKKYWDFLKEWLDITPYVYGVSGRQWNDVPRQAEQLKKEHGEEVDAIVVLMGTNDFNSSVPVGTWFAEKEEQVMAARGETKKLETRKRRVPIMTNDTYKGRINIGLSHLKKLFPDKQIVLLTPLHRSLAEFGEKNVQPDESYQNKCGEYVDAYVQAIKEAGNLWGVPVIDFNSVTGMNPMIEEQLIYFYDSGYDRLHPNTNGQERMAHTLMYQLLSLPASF
test name: The drug is tested on Bacteroides dorei strain: DSM17855 for biotransformation. The drug concentrations were measured before and after a 12-h incubation by liquid-chromatography-coupled mass spectrometry (LC–MS)
Type: ADME
Design: dose 2 uM
study conditions: 2 µM
measured endpoint: Bacterial Biotransformation

Some molecules with known Bacterial Biotransformation results, for comparison:
CC(=O)OCC(=O)NCCCOc1cccc(CN2CCCCC2)c1 [ROXATIDINE ACETATE] :: Compound NOT metabolized
C#C[C@]1(O)CC[C@H]2[C@@H]3CCC4=Cc5oncc5C[C@]4(C)[C@H]3CC[C@@]21C :: Compound NOT metabolized
C[C@]12CCC(=O)C=C1[C@@H]1C[C@@H]1[C@H]1[C@@H]3[C@@H]4C[C@@H]4[C@@]4(CCC(=O)O4)[C@@]3(C)CC[C@@H]12 :: Compound NOT metabolized
CCN(CC)C(=O)/C(C#N)=C/c1cc(O)c(O)c([N+](=O)[O-])c1 :: Compound NOT metabolized
Nc1ccc(/N=N/c2ccccc2)c(N)n1 :: Compound NOT metabolized

Could you now look at the following molecule, please?
Per the record, C#C[C@]1(OC(C)=O)CC[C@H]2[C@@H]3CCC4=CC(=O)CC[C@@H]4[C@H]3CC[C@@]21C [NORETHINDRONE ACETATE] has Bacterial Biotransformation of Compound NOT metabolized

====

test name: The drug is tested on Bacteroides pectinophilus strain: ATCC43243 for biotransformation. The drug concentrations were measured before and after a 12-h incubation by liquid-chromatography-coupled mass spectrometry (LC–MS)
study conditions: 2 µM
measured endpoint: Bacterial Biotransformation

Examples from the recorded data:
CN1[C@@H]2CC[C@H]1C[C@@H](OC(=O)c1c[nH]c3ccccc13)C2 [TROPISETRON] :: Compound NOT metabolized
CC#CCn1c(N2CCC[C@@H](N)C2)nc2c1c(=O)n(Cc1nc(C)c3ccccc3n1)c(=O)n2C [LINAGLIPTIN] :: Compound NOT metabolized
CCN(CC)C(C)CN1c2ccccc2Sc2ccccc21 (stereo not drawn) [ETHOPROPAZINE] :: Compound metabolized
c1ccc2[nH]c(-c3cscn3)nc2c1 [THIABENDAZOLE] :: Compound NOT metabolized
COc1cc2nc(N3CCN(C(=O)C4COc5ccccc5O4)CC3)nc(N)c2cc1OC.CS(=O)(=O)O (stereo not drawn) [DOXAZOSIN MESYLATE] :: Compound NOT metabolized
Cc1cc2c(cc1S(N)(=O)=O)S(=O)(=O)CCC2 :: Compound NOT metabolized

molecule COc1ccc2c(c1)c(CC(=O)O)c(C)n2C(=O)c1ccc(Cl)cc1 [INDOMETHACIN] , Bacterial Biotransformation observed: Compound metabolized

Please fill in: Bacterial Biotransformation reported for COc1ccc2[nH]c([S+]([O-])Cc3ncc(C)c(OC)c3C)nc2n1 (stereo not drawn) [TENATOPRAZOLE] = Compound metabolized

The molecule CC(C)c1nc(CN(C)C(=O)N[C@H](C(=O)N[C@@H](Cc2ccccc2)C[C@H](O)[C@H](Cc2ccccc2)NC(=O)OCc2cncs2)C(C)C)cs1 [RITONAVIR] showed Bacterial Biotransformation equal to Compound NOT metabolized

// COC1=C(OC)C(=O)C(CCCCCCCCCCO)=C(C)C1=O [IDEBENONE] : Bacterial Biotransformation value = Compound NOT metabolized

====

test name: The drug is tested on Bifidobacterium breve strain: DSM20213 for biotransformation. The drug concentrations were measured before and after a 12-h incubation by liquid-chromatography-coupled mass spectrometry (LC–MS)
study conditions: 2 µM
measured endpoint: Bacterial Biotransformation

Take a look at these entries with their results.
OCCN(CCO)c1nc(N2CCCCC2)c2nc(N(CCO)CCO)nc(N3CCCCC3)c2n1 :: Compound NOT metabolized
Nc1nnc(-c2cccc(Cl)c2Cl)c(N)n1 :: Compound NOT metabolized
COc1c(C)c2c(c(O)c1C/C=C(\C)CCC(=O)OCCN1CCOCC1)C(=O)OC2 [MYCOPHENOLATE MOFETIL] :: Compound metabolized
CN(C)CCC=C1c2ccccc2COc2ccccc21 [DOXEPIN] :: Compound NOT metabolized

Form: molecule = CCOC(=O)C1=C(C)NC(C)=C(C(=O)OC)C1c1cccc([N+](=O)[O-])c1 (stereo not drawn) ; Bacterial Biotransformation = Compound metabolized

// sample CCCC1O[C@@H]2C[C@H]3[C@@H]4CCC5=CC(=O)C=C[C@]5(C)[C@H]4[C@@H](O)C[C@]3(C)[C@]2(C(=O)CO)O1 (stereo partly drawn) [BUDESONIDE] , its Bacterial Biotransformation was Compound NOT metabolized

Note to self: Bacterial Biotransformation recorded for "CN1CC(=O)N2[C@H](c3ccc4c(c3)OCO4)c3[nH]c4ccccc4c3C[C@@H]2C1=O" was Compound NOT metabolized

Documented Bacterial Biotransformation of CCCC(C)(COC(N)=O)COC(=O)NC(C)C (stereo not drawn) : Compound NOT metabolized

====

test name: The drug is tested on Bacteroides caccae strain: ATCC43185 for biotransformation. The drug concentrations were measured before and after a 12-h incubation by liquid-chromatography-coupled mass spectrometry (LC–MS)
study conditions: 2 µM
measured endpoint: Bacterial Biotransformation

Solved cases (10 shown):
OC(Cn1cncn1)(Cn1cncn1)c1ccc(F)cc1F :: Compound NOT metabolized
Nc1nnc(-c2cccc(Cl)c2Cl)c(N)n1 :: Compound NOT metabolized
CCc1nc(N)nc(N)c1-c1ccc(Cl)cc1 :: Compound NOT metabolized
CC1OC(OC2C(O)CC(OC3C(O)CC(OC4CCC5(C)C(CCC6C5CCC5(C)C(C7=CC(=O)OC7)CCC65O)C4)OC3C)OC2C)CC(O)C1O (stereo not given) :: Compound NOT metabolized
O=C(O)CCC(=O)O.O=C(O[C@H]1CN2CCC1CC2)N1CCc2ccccc2[C@@H]1c1ccccc1 [SOLIFENACIN SUCCINATE] :: Compound NOT metabolized
CN(C)CCOC(c1ccc(Cl)cc1)c1ccccn1.O=C(O)/C=C\C(=O)O (stereo not given) [CARBINOXAMINE MALEATE] :: Compound NOT metabolized
CN1C(=O)CC(C)(c2ccccc2)C1=O (stereo not given) [METHSUXIMIDE] :: Compound NOT metabolized
Cc1ccc(S(=O)(=O)NC(=O)NN2CC3CCCC3C2)cc1 (stereo not given) [GLICLAZIDE] :: Compound NOT metabolized
O=C(NCc1ccccc1)OCCO [BURAMATE] :: Compound NOT metabolized
CCCC(=O)Nc1ccc(OCC(O)CNC(C)C)c(C(C)=O)c1 (stereo not given) :: Compound NOT metabolized

// Bacterial Biotransformation value for "c1ccc([C@H]2CN3CCSC3=N2)cc1" : Compound metabolized

The molecule CC(C)(C)NC[C@H](O)COc1nsnc1N1CCOCC1.O=C(O)/C=C\C(=O)O [TIMOLOL MALEATE] showed Bacterial Biotransformation equal to Compound NOT metabolized

====

test name: The drug is tested on Bacteroides fragilis strain: HMW615 for biotransformation. The drug concentrations were measured before and after a 12-h incubation by liquid-chromatography-coupled mass spectrometry (LC–MS)
study conditions: 2 µM
measured endpoint: Bacterial Biotransformation

CN1CCN(CC/C=C2/c3ccccc3Sc3ccc(S(=O)(=O)N(C)C)cc32)CC1 [THIOTHIXENE] :: Compound NOT metabolized
O=c1[nH]c2ccccc2n1CCCN1CCC(n2c(=O)[nH]c3cc(Cl)ccc32)CC1 [DOMPERIDONE] :: Compound NOT metabolized
O=C(O)CCC(=O)O.O=C(O[C@H]1CN2CCC1CC2)N1CCc2ccccc2[C@@H]1c1ccccc1 [SOLIFENACIN SUCCINATE] :: Compound NOT metabolized
